Values from PubChem BioAssay (NCATS)

- TEST_TARGET: Cytochrome P450 1A2 (Homo sapiens) (UniProt P05177)
- Sequence (P05177 whole entry, looked up): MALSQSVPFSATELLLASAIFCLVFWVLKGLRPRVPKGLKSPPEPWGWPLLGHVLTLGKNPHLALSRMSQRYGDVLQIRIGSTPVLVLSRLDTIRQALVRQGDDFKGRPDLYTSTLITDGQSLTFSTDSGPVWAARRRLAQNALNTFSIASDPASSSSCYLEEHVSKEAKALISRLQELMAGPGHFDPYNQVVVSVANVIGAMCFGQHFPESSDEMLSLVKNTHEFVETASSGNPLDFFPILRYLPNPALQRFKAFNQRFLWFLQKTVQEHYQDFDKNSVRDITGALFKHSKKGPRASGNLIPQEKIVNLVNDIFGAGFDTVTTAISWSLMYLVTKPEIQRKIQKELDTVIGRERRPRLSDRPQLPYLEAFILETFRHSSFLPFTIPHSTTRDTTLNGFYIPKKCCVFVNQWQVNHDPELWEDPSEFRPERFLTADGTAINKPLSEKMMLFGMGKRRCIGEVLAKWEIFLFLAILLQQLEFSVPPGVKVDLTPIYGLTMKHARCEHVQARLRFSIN
- ASSAY_REMARKS: p450-cyp1a2 (AID 410)
- TEST_PARAMETERS: recombinant CYP1A2, luciferin-ME demethylation, luminescence; series mostly up to 57 µM
- Experimental: The P450 gene superfamily is involved in metabolism and the clearance of xenobiotics. This assay used human CYP1A2 to measure the demethylation of luciferin 6' methyl ether (Luciferin-ME; Promega-Glo) to luciferin. The luciferin is then measured by luminescence after the addition of a luciferase detection regeant. Luciferin-ME concentration in the assay was equal to its Km for CYP1A2. NCGC Assay Protocol Summary: […]
Results filed as inconclusive are left out. Calls of active or inactive are those of the source. Calls come from the whole dose curve.
Outcome codes: active, inactive

COc1cccc(-c2nc(N(C)C)c3ccccc3n2)c1
active
CN(C)Cc1ccccc1-c1ccc2ncnc(N(C)C)c2c1
active
Cn1cc(-c2nc3cnc(N4CCNCC4)nc3n(CCc3ccccc3)c2=O)c2ccccc21
active
c1cn(-c2ncnc3ccc(-c4ccoc4)cc23)cn1
active
CN(C)c1ncc2nc(CCc3ccccc3)c(=O)n(Cc3cccs3)c2n1
active
Clc1ccccc1-c1nc(-n2ccnc2)c2ccccc2n1
active
COc1ccc2[nH]cc(CCNc3cc(-c4cccc(C#N)c4)ncn3)c2c1
active
CC(C)=CCC1=C(OCC(=O)O)C(=O)c2ccccc2C1=O
active
COCCn1c(=O)c(-c2cccs2)nc2cnc(N3CCNCC3)nc21
active
COCCn1c(=O)c(-c2ccccc2)nc2cnc(Oc3cccc(Cl)c3)nc21
active
COc1cccc(-c2nc(NCc3cccnc3)c3ccccc3n2)c1
active
COc1ccc2[nH]cc(CCNc3ncncc3-c3ccccc3C)c2c1
active
O=C(c1cc(C(F)(F)F)cc(C(F)(F)F)c1)N1CCC2(CCCN(c3ncccn3)C2)CC1
active
COc1ccc(-c2nc3cnc(N4CCN(C)CC4)nc3n(CCc3ccccc3)c2=O)cc1
inactive
COCCn1c(=O)c(-c2cccc(C#N)c2)nc2cnc(OCc3ccccc3)nc21
active
CCNc1ncc2nc(CCc3ccccc3)c(=O)n(Cc3cccc(OC)c3)c2n1
active
O=c1cc(-c2ccc(O)c(O)c2)oc2cc(O[C@@H]3O[C@@H](CO)[C@@H](O)[C@@H](O)[C@H]3O)cc(O)c12
active

---

- TEST_TARGET: Rap guanine nucleotide exchange factor 3 (Homo sapiens) (UniProt O95398)
- Sequence (O95398 whole entry, looked up): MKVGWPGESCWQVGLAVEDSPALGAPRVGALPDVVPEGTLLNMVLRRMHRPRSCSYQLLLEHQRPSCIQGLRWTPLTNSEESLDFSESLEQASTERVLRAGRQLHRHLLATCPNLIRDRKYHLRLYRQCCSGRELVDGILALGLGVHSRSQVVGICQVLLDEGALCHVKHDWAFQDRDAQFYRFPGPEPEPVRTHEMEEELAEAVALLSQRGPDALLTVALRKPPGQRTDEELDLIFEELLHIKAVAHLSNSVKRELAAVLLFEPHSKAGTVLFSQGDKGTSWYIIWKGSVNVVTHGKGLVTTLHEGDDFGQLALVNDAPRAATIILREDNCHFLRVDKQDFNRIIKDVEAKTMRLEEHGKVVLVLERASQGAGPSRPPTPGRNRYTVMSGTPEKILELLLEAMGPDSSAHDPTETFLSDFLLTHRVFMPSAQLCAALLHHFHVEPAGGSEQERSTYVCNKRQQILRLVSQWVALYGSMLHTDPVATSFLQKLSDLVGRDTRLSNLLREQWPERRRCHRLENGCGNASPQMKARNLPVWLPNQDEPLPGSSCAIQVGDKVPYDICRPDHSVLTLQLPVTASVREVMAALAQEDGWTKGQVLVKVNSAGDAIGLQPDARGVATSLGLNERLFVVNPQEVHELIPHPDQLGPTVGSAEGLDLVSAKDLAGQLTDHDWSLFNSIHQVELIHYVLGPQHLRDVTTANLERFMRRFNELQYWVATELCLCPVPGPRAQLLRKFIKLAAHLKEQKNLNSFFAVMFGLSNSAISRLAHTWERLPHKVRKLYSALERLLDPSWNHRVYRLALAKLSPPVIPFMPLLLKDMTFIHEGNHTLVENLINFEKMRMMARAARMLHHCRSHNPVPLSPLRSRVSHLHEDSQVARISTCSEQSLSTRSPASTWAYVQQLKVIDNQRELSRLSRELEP
- ASSAY_REMARKS: Confirmatory qHTS for antagonist of cAMP-regulated guanine nucleotide exchange factor 3 (EPAC1) (AID 1645880); note: nearly all actives have a fitted effect of over 55% in size
- TEST_PARAMETERS: EPAC1 Rap1B-BODIPY-GDP exchange, fluorescence
- Excerpt: Assay Provider (PI): Xiaodong Cheng Ph.D. The University of Texas Medical Branch, […], TX MLPCN Grant: NS066510 In multi-cellular eukaryotic organisms, the effects of cAMP are transduced by two ubiquitously-expressed intracellular cAMP receptors, the classic protein kinase A/cAMP-dependent protein kinase (PKA/cAPK) and the more recently discovered exchange protein directly activated by cAMP/cAMP-regulated guanine nucleotide exchange factor (EPAC/cAMP-GEF). […]
Results filed as inconclusive are left out. Calls of active or inactive are those of the source. Calls follow the shape of the dose curve; as a rule, active = well fitted inhibition curve with a large enough effect; inconclusive = small, poorly fitted or top-dose-only effect; inactive = no such curve, though single readings can be large or run the other way.
Outcome codes: active, inactive

Cc1cc(Br)ccc1-n1[nH]c(C)c(C=Nc2cccc3nsnc23)c1=O
inactive
C/C(=N\NC(=O)CC#N)c1cc2ccc(O)cc2oc1=O
inactive
N=C1/C(=C/c2coc3ccccc3c2=O)C(=O)N=C2SC(c3ccco3)=NN12
inactive
C/C(=N\NS(=O)(=O)c1ccccc1)c1cc(Cl)cc(Cl)c1O
active
NC1=CC(=O)C(=O)c2cccnc21
active
CCOc1ccc(-c2cccc(NC(=O)c3ccco3)c2)nn1
inactive
COC(=O)C1=CN(C(C)c2ccccc2)C=C(C(=O)OC)C1c1cc(OC)c(OC)c(OC)c1 (stereo not drawn)
inactive
CSc1ccccc1C(=O)Nc1ccc(C)cc1C
inactive
O=C1C(=Cc2ccccc2Cl)CCc2ccccc21
inactive
O=C(N=c1ccn(-c2nc3ccccc3nc2NS(=O)(=O)c2ccccc2)cc1)c1ccccc1Cl
inactive
COc1cc(CN2C(=O)C(C)ON=C2c2ccccc2F)cc(OC)c1 (stereo not drawn)
inactive
O=C(Nc1ccccc1C(=O)O)c1cccc(S(=O)(=O)Nc2ccc(Br)cc2)c1
active
O=C(Cn1cnc2c(nnn2Cc2ccccc2)c1=O)N1CCN(c2ccccc2)CC1
inactive
O=C(/C=C/c1ccco1)N1CCCC(c2ccccc2)C1 (stereo not drawn)
active
Cn1c(/C(C#N)=C/c2ccc(-c3ccc(S(N)(=O)=O)cc3)o2)nc2ccccc21
inactive
Cc1ccc(CNC(=O)c2cccc3c2C(=O)c2ccc(N4CCC(C)CC4)cc2S3(=O)=O)cc1
inactive
CN(C)c1ccc(-c2cc3ccccc3c(=O)o2)cc1
inactive
O=C(N/N=C/c1ccccc1Cl)c1[nH]c2ccc(Br)cc2c1-c1ccccc1
inactive
O=C1CSC(c2ccc(Cl)cc2Cl)N1c1ccccn1 (stereo not drawn)
inactive
O=C(CS(=O)(=O)c1ccccc1)c1cc2cc(F)ccc2oc1=O
active
O=CN(c1ccccc1)c1ccc2ccccc2c1
inactive
O=C(NCCOc1ccc(F)cc1)c1ccccc1SCc1ccccc1
inactive
CCCCCn1nc(-c2ccccc2)c2nc3ccccc3nc21
inactive

---

- TEST_TARGET: Guanidinoacetate N-methyltransferase (Homo sapiens)
- ASSAY_REMARKS: Confirmatory Screen for Target Class Profiling of Small Molecule Inhibitors of Methyltransferases (AID 1745852); note: % is set by controls: 0 for no effect and ±100 for the full control effect
- TEST_PARAMETERS: MTase-Glo luminescence, SAH detection, recombinant enzyme; at 57.3 µM (top of the series) unless noted
REPORTED_METRIC: activity change, negative = inhibition (%)

COc1ccc(-c2n[nH]n3c2nc(=O)c2ccc(C(=O)NC(C)c4ccc(F)cc4)cc23)cc1 (stereo not given)
-8.96
COc1cccc(NC(=O)Cn2c(=O)oc3cc(S(=O)(=O)N4CC(C)CC(C)C4)ccc32)c1 (stereo not given)
0
CC(C)Cn1c(=O)c2ccccc2n2c(CCC(=O)N3CCN(c4ccccc4)CC3)nnc12
0
N#Cc1cc(CN2CCCC(C(=O)Nc3cccc(-c4ccc(F)cc4)c3)C2)c[nH]1 (stereo not given)
-9.38
c1ccc(CN2CCc3c(sc4ncnc(N5CCOCC5)c34)C2)cc1
-10.8
CCN1CCN(c2nc3c(S(=O)(=O)c4ccc(Br)cc4)nnn3c3ccccc23)CC1
2.08
O=C(Cn1c(=O)oc2cc(S(=O)(=O)N3CCCC3)ccc21)Nc1cccc(Cl)c1
0
O=C(CC1CCCC1)N1CCC(Nc2cccnc2)C1 (stereo not given)
-10.5

---

- TEST_TARGET: Rap guanine nucleotide exchange factor 4 (Homo sapiens) (UniProt Q8WZA2)
- Sequence (Q8WZA2 whole entry, looked up): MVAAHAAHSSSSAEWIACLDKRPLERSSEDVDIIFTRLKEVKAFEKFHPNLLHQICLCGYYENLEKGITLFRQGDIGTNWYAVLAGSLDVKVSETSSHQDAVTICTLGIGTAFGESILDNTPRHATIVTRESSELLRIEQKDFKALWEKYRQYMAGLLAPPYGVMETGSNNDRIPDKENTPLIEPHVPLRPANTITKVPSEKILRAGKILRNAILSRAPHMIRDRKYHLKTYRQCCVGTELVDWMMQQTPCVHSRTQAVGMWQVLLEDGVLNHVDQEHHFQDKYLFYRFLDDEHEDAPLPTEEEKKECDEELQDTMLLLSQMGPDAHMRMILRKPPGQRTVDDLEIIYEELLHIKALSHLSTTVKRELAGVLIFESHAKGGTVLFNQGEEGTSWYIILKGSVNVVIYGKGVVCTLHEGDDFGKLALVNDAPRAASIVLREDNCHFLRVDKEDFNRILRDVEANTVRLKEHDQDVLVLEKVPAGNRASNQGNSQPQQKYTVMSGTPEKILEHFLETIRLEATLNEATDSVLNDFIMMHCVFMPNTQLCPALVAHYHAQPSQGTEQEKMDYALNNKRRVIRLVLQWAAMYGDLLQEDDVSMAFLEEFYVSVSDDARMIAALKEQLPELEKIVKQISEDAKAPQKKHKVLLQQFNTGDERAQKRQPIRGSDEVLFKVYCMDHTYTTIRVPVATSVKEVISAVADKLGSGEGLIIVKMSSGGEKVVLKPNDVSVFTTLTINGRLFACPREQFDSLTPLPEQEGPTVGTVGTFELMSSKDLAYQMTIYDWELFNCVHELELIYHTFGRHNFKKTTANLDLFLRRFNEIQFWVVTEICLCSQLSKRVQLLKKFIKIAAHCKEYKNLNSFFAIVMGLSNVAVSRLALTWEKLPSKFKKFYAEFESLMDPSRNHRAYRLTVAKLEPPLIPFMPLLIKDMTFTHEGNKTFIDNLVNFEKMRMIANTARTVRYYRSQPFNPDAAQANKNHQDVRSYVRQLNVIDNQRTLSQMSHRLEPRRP
- ASSAY_REMARKS: Confirmatory qHTS for agonist of cAMP-regulated guanine nucleotide exchange factor 4 (EPAC2) (AID 1645884);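 note: nucleotide exchange releases bodipy-GDP from Rap1 and this lowers its fluorescence; % is set by controls: 0 for no effect and ±100 for the full control effect; nearly all actives have a fitted effect of over 65% in size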
- TEST_PARAMETERS: EPAC2 GEF activity, Rap1B-BODIPY-GDP fluorescence; series mostly up to 154 µM
Results filed as inconclusive are left out. Calls of active or inactive are those of the source. Calls come from the whole dose curve; as a rule, active = well fitted activation curve with a large enough effect; inconclusive = small, poorly fitted or top-dose-only effect; inactive = no such curve, though single readings can be large or run the other way.
REPORTED_METRIC: activation

CN(CC(=O)Nc1ccc(F)cc1)C(=O)c1cc(-c2ccco2)nc2ccccc12
inactive
CC(C)CC1C(=O)N(Cc2cn(Cc3ccco3)nn2)CCS(=O)(=O)N1Cc1ccc(-c2ccc(F)cc2)cc1 (stereo not given)
inactive
Cc1ccc(-c2noc(CSc3nnnn3C3CCCCC3)n2)cc1
inactive
CCOC(=O)C1(O)Oc2cc(OC)cc(OC)c2C(=O)C1c1ccccc1 (stereo not given)
inactive
CC1=NOC(=O)/C1=C\c1ccc(-c2ccccc2Br)o1
inactive

---

- TEST_TARGET: Rap guanine nucleotide exchange factor 3 (Homo sapiens)
- ASSAY_REMARKS: Confirmatory qHTS for antagonist of cAMP-regulated guanine nucleotide exchange factor 3 (EPAC1) (AID 1645880); note: nearly all actives have a fitted effect of over 55% in size
- TEST_PARAMETERS: EPAC1 Rap1B-BODIPY-GDP exchange, fluorescence
Results filed as inconclusive are left out. Active and inactive are the calls of the source. Calls follow the shape of the dose curve; as a rule, active = well fitted inhibition curve with a large enough effect; inconclusive = small, poorly fitted or top-dose-only effect; inactive = no such curve, though single readings can be large or run the other way.
Outcome codes: active, inactive

Cc1cc(C)c2sc(N(CCCN(C)C)C(=O)c3ccc(S(=O)(=O)N(C)C4CCCCC4)cc3)nc2c1
inactive
COc1cccc(CN(C)CC(=O)Nc2c(C)cccc2C(C)C)c1
inactive
COc1cc2c(cc1OC)C1C(=O)c3ccc4c(c3OC1CO2)C=CC(C)(C)O4 (stereo not given)
inactive
O=C(N/N=C/c1ccccc1O)c1ccc2c(c1)OCO2
inactive
COc1ccc(CCNC2CC(=O)N(CCc3ccc(OC)c(OC)c3)C2=O)cc1 (stereo not given)
inactive
C=C1CCC(O)C/C1=C\C=C1/CCCC2(C)C1CCC2C(C)CCCC(C)C (stereo not given)
active
COc1ccc(/C(O)=C/c2nc3ccccc3n(-c3ccccc3)c2=O)cc1
inactive
COCc1c(C(=O)N2CCc3ccccc32)oc2ccccc12
inactive
Cc1ccc(S(=O)(=O)N2[C@@H](c3cccc(Cl)c3)C(C(=O)O)=CC[C@H]2c2ccc(Cl)c(Cl)c2)cc1
active
O=C(Cc1ccccc1)Nn1c(O)c(/C=C2\C=Nc3ccccc32)sc1=S
inactive
